assay: in vitro; conditions: human, Caco-2
assay endpoint: Papp B→A at 2 h, 10 µM
Note to self: number, then unit, no commentary.

Lookup: What measured Papp B→A at 2 h, 10 µM goes with CCc1c2c(nc3ccc(OC(=O)N4CCC(N5CCCCC5)CC4)cc13)-c1cc3c(c(=O)n1C2)COC(=O)[C@]3(O)CC ?
Found: 5.1 ×10⁻⁶ cm/s

Lookup: State the recorded Papp B→A at 2 h, 10 µM for this entry: CCn1cc(C(=O)O)c(=O)c2cc(F)c(N3CCNCC3)cc21
Found: 3.3 ×10⁻⁶ cm/s

Lookup: Name the reported Papp B→A at 2 h, 10 µM value associated with the compound COc1cc([C@@H]2c3cc4c(cc3[C@@H](O[C@@H]3O[C@@H]5CO[C@@H](c6cccs6)O[C@H]5[C@H](O)[C@H]3O)[C@H]3COC(=O)[C@H]23)OCO4)cc(OC)c1O [TENIPOSIDE]
Found: 8.8 ×10⁻⁶ cm/s

Lookup: Endpoint output: Papp B→A at 2 h, 10 µM of COc1cc2nc(N3CCN(C(=O)c4ccco4)CC3)nc(N)c2cc1OC . Value?
Found: 11.1 ×10⁻⁶ cm/s

Lookup: Which measured Papp B→A at 2 h, 10 µM value corresponds to COC(=O)[C@H]1[C@H]2C[C@@H]3c4[nH]c5cc(OC)ccc5c4CCN3C[C@H]2C[C@@H](OC(=O)c2cc(OC)c(OC)c(OC)c2)[C@@H]1OC ?
Found: 2.3 ×10⁻⁶ cm/s

Lookup: What value of measured Papp B→A at 2 h, 10 µM is listed for COc1ccc([C@@H]2Sc3ccccc3N(CCN(C)C)C(=O)[C@@H]2OC(C)=O)cc1 ?
Found: 8.3 ×10⁻⁶ cm/s

Lookup: Fill in the blank: the reported Papp B→A at 2 h, 10 µM of CC(=O)N1CCN(c2ccc(OCC3COC(Cn4ccnc4)(c4ccc(Cl)cc4Cl)O3)cc2)CC1 (stereo unspecified) is ____.
Found: 5.1 ×10⁻⁶ cm/s

Lookup: Sample C=CCN1CC[C@]23c4c5ccc(O)c4O[C@H]2C(=O)CC[C@@]3(O)[C@H]1C5 — what was its Papp B→A at 2 h, 10 µM?
Found: 10.3 ×10⁻⁶ cm/s

Lookup: // query Papp B→A at 2 h, 10 µM value for entry CN/C(=N/CCSCc1nc[nH]c1C)NC#N
Found: 4.8 ×10⁻⁶ cm/s

Lookup: What does the data say about its Papp B→A at 2 h, 10 µM? Entry: COc1cc([C@@H]2c3cc4c(cc3[C@@H](O[C@@H]3O[C@@H]5CO[C@@H](C)O[C@H]5[C@H](O)[C@H]3O)[C@H]3COC(=O)[C@H]23)OCO4)cc(OC)c1O [ETOPOSIDE]
Found: 3 ×10⁻⁶ cm/s

Lookup: Report Papp B→A at 2 h, 10 µM for CN(Cc1cnc2nc(N)nc(N)c2n1)c1ccc(C(=O)N[C@@H](CCC(=O)O)C(=O)O)cc1 [METHOTREXATE] please.
Found: 1.1 ×10⁻⁶ cm/s

Lookup: I have this compound here, CNS(=O)(=O)Cc1ccc2[nH]cc(CCN(C)C)c2c1 , and I need its recorded Papp B→A at 2 h, 10 µM.
Found: 2.2 ×10⁻⁶ cm/s

Lookup: // query Papp B→A at 2 h, 10 µM value for entry C=CC[C@@H]1/C=C(\C)C[C@H](C)C[C@H](OC)[C@H]2O[C@@](O)(C(=O)C(=O)N3CCCC[C@H]3C(=O)O[C@H](/C(C)=C/[C@@H]3CC[C@@H](O)[C@H](OC)C3)[C@H](C)[C@@H](O)CC1=O)[C@H](C)C[C@@H]2OC [TACROLIMUS ANHYDROUS]
Found: 3.6 ×10⁻⁶ cm/s

Lookup: Find the recorded Papp B→A at 2 h, 10 µM belonging to O=C(O)CN(CCN(CC(=O)O)Cc1ccccc1O)Cc1ccccc1O and report it.
Found: 0.04 ×10⁻⁶ cm/s

Lookup: So what does the record say about Papp B→A at 2 h, 10 µM for O=C1c2c(O)ccc(O)c2C(=O)c2c(NCCNCCO)ccc(NCCNCCO)c21 ?
Found: 12.5 ×10⁻⁶ cm/s

Lookup: Field request: Papp B→A at 2 h, 10 µM | item: CCC1=C[C@@H]2CN(C1)Cc1c([nH]c3ccccc13)[C@@](C(=O)OC)(c1cc3c(cc1OC)N(C)[C@H]1[C@@](O)(C(=O)OC)[C@H](OC(C)=O)[C@]4(CC)C=CCN5CC[C@]31[C@@H]54)C2
Found: 8.5 ×10⁻⁶ cm/s

Lookup: Reported Papp B→A at 2 h, 10 µM for COc1cc(Cc2cnc(N)nc2N)cc(OC)c1OC : what is it?
Found: 11.2 ×10⁻⁶ cm/s

Lookup: Consider the compound shown here: CCCC(=O)Nc1ccc(OCC(O)CNC(C)C)c(C(C)=O)c1 (stereo unspecified) What is its recorded Papp B→A at 2 h, 10 µM?
Found: 4.1 ×10⁻⁶ cm/s

Lookup: Param item = O=C1CN(/N=C/c2ccc([N+](=O)[O-])o2)C(=O)N1 ; retrieve measured Papp B→A at 2 h, 10 µM.
Found: 11.1 ×10⁻⁶ cm/s

Lookup: So what does the record say about Papp B→A at 2 h, 10 µM for CC[C@H]1OC(=O)[C@H](C)[C@@H](O[C@H]2C[C@@](C)(OC)[C@@H](O)[C@H](C)O2)[C@H](C)[C@@H](O[C@@H]2O[C@H](C)C[C@H](N(C)C)[C@H]2O)[C@](C)(OC)C[C@@H](C)C(=O)[C@H](C)[C@@H](O)[C@]1(C)O ?
Found: 18 ×10⁻⁶ cm/s

Lookup: Please give the measured Papp B→A at 2 h, 10 µM for this compound: CC[C@]1(O)C[C@@H]2CN(CCc3c([nH]c4ccccc34)[C@@](C(=O)OC)(c3cc4c(cc3OC)N(C)[C@H]3[C@@](O)(C(=O)OC)[C@H](OC(C)=O)[C@]5(CC)C=CCN6CC[C@]43[C@@H]65)C2)C1
Found: 11.9 ×10⁻⁶ cm/s

Lookup: Fill in: Papp B→A at 2 h, 10 µM of Cc1c(O)cccc1C(=O)N[C@@H](CSc1ccccc1)[C@H](O)CN1C[C@H]2CCCC[C@H]2C[C@H]1C(=O)NC(C)(C)C is ___
Found: 1.7 ×10⁻⁶ cm/s

Lookup: Reported Papp B→A at 2 h, 10 µM, compound CC(C)c1nc(N(C)S(C)(=O)=O)nc(-c2ccc(F)cc2)c1/C=C/[C@@H](O)C[C@@H](O)CC(=O)O : ____
Found: 7.5 ×10⁻⁶ cm/s

Lookup: // Papp B→A at 2 h, 10 µM lookup, key: CC(C)c1nc(CN(C)C(=O)N[C@H](C(=O)N[C@@H](Cc2ccccc2)C[C@H](O)[C@H](Cc2ccccc2)NC(=O)OCc2cncs2)C(C)C)cs1
Found: 9.2 ×10⁻⁶ cm/s

Lookup: # query: Papp B→A at 2 h, 10 µM of entry CCCCC(=O)N(Cc1ccc(-c2ccccc2-c2nnn[nH]2)cc1)[C@H](C(=O)O)C(C)C
Found: 1.7 ×10⁻⁶ cm/s

Lookup: Query (compound): CC[C@H]1OC(=O)[C@H](C)[C@@H](O[C@H]2C[C@@](C)(OC)[C@@H](O)[C@H](C)O2)[C@H](C)[C@@H](O[C@@H]2O[C@H](C)C[C@H](N(C)C)[C@H]2O)[C@](C)(O)C[C@@H](C)C(=O)[C@H](C)[C@@H](O)[C@]1(C)O ; field requested: Papp B→A at 2 h, 10 µM
Found: 3 ×10⁻⁶ cm/s
